% Hemmung 2h values by entry
Test system: Kaolin-induziertes Pfotenoedem
Test Description: Kaolin-induced rat paw oedema after dermal administration
Assay type: in vivo, Ratte
Reported Conditions: 2 h after kaolin injection, 10 mg/kg standard acid, esters 12.3-13.2 mg/kg equivalent to 10 mg/kg acid, applied 30 min before and 150 min after kaolin

[
  {
    "Compound": "O=C(O)Cc1ccccc1Nc1c(Cl)cccc1Cl [Diclofenac, reference compound]",
    "% Hemmung 2h, %": 0
  },
  {
    "Compound": "O=C(O)Cc1cn(-c2ccccc2)nc1-c1ccc(Cl)cc1 [Lonazolac, reference compound]",
    "% Hemmung 2h, %": 0
  },
  {
    "Compound": "CC(C)(CO)COC(=O)c1ccccc1Nc1cccc(C(F)(F)F)c1",
    "% Hemmung 2h, %": 2.2
  },
  {
    "Compound": "O=C(O)c1ccccc1Nc1cccc(C(F)(F)F)c1 [Flufenaminsäure, N-(α,α,α-Trifluor-m-tolyl)anthranilsäure, reference compound]",
    "% Hemmung 2h, %": 0
  }
]

Where do the numbers come from? From patent EP0335164A2.
